B1: TPR 5TU (parent)
chain: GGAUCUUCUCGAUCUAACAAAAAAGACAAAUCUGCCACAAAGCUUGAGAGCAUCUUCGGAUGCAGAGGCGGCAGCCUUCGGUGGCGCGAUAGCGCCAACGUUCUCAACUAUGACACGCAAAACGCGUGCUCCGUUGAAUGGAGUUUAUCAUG

- Variants of: B1
- protocol-summary: polymerase ribozyme fitness, log enrichment relative to wild type (log ratio); higher = more active; in vitro selection for triplet polymerase activity
Variants at the floor of the assay were thinned out.

# mutant-id, polymerase ribozyme fitness (log ratio)
data = [
    ("G48C G59A C85U C129A", -4.08),
    ("G11U A19C G68A G74A C87A C149G", "≤ -4.2"),
    ("C93U C149A", -4.05),
    ("A21U C93A", -1.74),
    ("U82A G126A G133C", -1.01),
    ("U77C C95U G141A", "≤ -4.2"),
    ("C27A A30C A89G G92A C105U G140U", -3.96),
    ("U31C A52C C54U U139C G143U", "≤ -4.2"),
    ("A19C C32U A49G G59U", "≤ -4.2"),
    ("A17C A30C", -3.82),
    ("A41C C132A", -2.55),
]
